Can you tell me inhibition at 25 µg/mL for the items I'm about to list?
Biological target: porcine pancreatic PLA2 (Sus scrofa)
Construct: purchased Sigma
Assay: PLA2 assay: in vitro porcine pancreatic phospholipase A2, preincubation of drug+enzyme, substrate 2 nM
Format: biochemical
Details: dose 25 μ/ml; preincubation; subs. con. 2; read-out: % Inh.

These solved cases illustrate the format of a correct answer.
Endpoint output: inhibition at 25 µg/mL of CCCCCCCCCCCCCCCCOCC(COP(=O)([O-])OCC[N+](C)(C)C)OP(=O)(O)OCCCCCCCCCCCCCCCC (single isomer, unassigned; more polar) . Value?
91%

Next record, please: CCCCCCCCCCCCCCCCOC[C@@H](COP(=O)([O-])OCC[N+](C)(C)C)OP(=O)(OC)OCCCCCCCCCCCCCCCC (single isomer, unassigned)
91%

Working through the 4 molecules below one at a time, give inhibition at 25 µg/mL for each.
1. CCCCCCCCCCCCCCCCCC(=O)NCC(CO)COCCCCCCCCCCCCCCCC (stereo not drawn)
2. CCCCCCCCCCCCCCCCOCC(COP(=O)([O-])OCC[N+](C)(C)C)OP(=O)(OC)OCCCCCCCCCCCCCCCC (stereo not drawn)
3. CCCCCCCCCCCCCCCCOC[C@H](COP(=O)([O-])OCC[N+](C)(C)C)OP(=O)(OC)OCCCCCCCCCCCCCCCC (single isomer, unassigned)
4. CCCCCCCCCCCCCCCCOC[C@@H](COP(=O)([O-])OCC[N+](C)(C)C)OP(=O)(O)OCCCCCCCCCCCCCCCC

["93%", "71%", "93%", "8%"]

----------
Biological target: porcine pancreatic PLA2 (Sus scrofa, UniProt P00592)
Construct: purchased Sigma
Sequence (P00592 23-146): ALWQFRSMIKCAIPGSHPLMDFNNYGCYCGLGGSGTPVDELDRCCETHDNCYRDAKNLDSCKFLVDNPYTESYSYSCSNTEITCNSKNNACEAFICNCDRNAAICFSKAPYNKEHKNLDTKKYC
Assay: HPLA2 assay: in vitro porcine pancreatic phospholipase A2, preincubation design, [s]=10 μm
Format: biochemical
Details: dose 10 μ/ml, subs. con. 10, read-out: % Inh. Avg.
Property Name: inhibition at 10 µg/mL
Entry format: amount then unit.

These solved cases illustrate the format of a correct answer.
Endpoint output: inhibition at 10 µg/mL of CCCCCCCCCCCCCCCCOC[C@@H](COP(=O)([O-])OCC[N+](C)(C)C)OP(=O)(OC)OCCCCCCCCCCCCCCCC (single isomer, unassigned) . Value?
22%

Next record, please: CCCCCCCCCCCCCCCCOCC(COP(=O)([O-])OCC[N+](C)(C)C)OP(=O)(O)OCCCCCCCCCCCCCCCC (single isomer, unassigned; more polar)
18%

Next record, please: CCCCCCCCCCCCCCCCOC[C@H](COP(=O)([O-])OCC[N+](C)(C)C)OP(=O)(OC)OCCCCCCCCCCCCCCCC (single isomer, unassigned)
17%

Next:
Endpoint output: inhibition at 10 µg/mL of CCCCCCCCCCCCCCCCOCC(COP(=O)([O-])OCC[N+](C)(C)C)C[S+]([O-])CCCCCCCCCCCCCCCC (stereo not shown) . Value?
22%

----------
Target: porcine pancreatic PLA2 (Sus scrofa)
Construct: purchased Sigma
Assay: MHPLA2 assay: in vitro porcine pancreatic phospholipase A2, mixed micelle design, [s]=10 μm
Type: biochemical
Conditions: dose 25 μ/ml, subs. con. 10, read-out: % Inh.
Can you tell me inhibition at 25 µg/mL for the items I'm about to list?
Numbers only, in %.

Endpoint output: inhibition at 25 µg/mL of CCCCCCCCCCCCCCCCOC[C@H](COP(=O)([O-])OCC[N+](C)(C)C)OP(=O)(OC)OCCCCCCCCCCCCCCCC (single isomer, unassigned) . Value?
7

Working through the 6 compounds below one at a time, give inhibition at 25 µg/mL for each.
1. CCCCCCCCCCCCCCCCOCC(COP(=O)([O-])OCC[N+](C)(C)C)C[S+]([O-])CCCCCCCCCCCCCCCC (stereo not shown)
2. CCCCCOCC(COP(=O)([O-])OCC[N+](C)(C)C)OP(=O)(OC)OCCCCC (single isomer, unassigned; more polar)
3. CCCCCCCCCCCCCCCCOCC(COP(=O)([O-])OCC[N+](C)(C)C)CC(O)C(F)(F)CCCCCCCCCCCCCCCC (stereo not shown)
4. CCCCCCCCCCCCCCCCOCC(COP(=O)([O-])OCC[N+](C)(C)C)CC(=O)C(F)(F)CCCCCCCCCCCCCCCC (stereo not shown)
5. CCCCCCCCCCCCCCCCOCC(COP(=O)([O-])OCC[N+](C)(C)C)OP(=O)(O)OCCCCCCCCCCCCCCCC (single isomer, unassigned; more polar)
6. CCCCCCCCCCCCCCCCOCC(COP(=O)([O-])OCC[N+](C)(C)C)CC(=O)C(=O)CCCCCCCCCCCCCCCC (stereo not shown)

1. 68
2. 0
3. 11
4. 8
5. 1
6. 0

----------
Molecular target: porcine pancreatic PLA2 (Sus scrofa, UniProt P00592)
Construct: purchased Sigma
Experiment: MHPLA2 assay: in vitro porcine pancreatic phospholipase A2, mixed micelle design, [s]=10 μm
Assay type: biochemical
Settings: dose 25 μ/ml, subs. con. 10
Property Name: % Inh.

These solved cases illustrate the format of a correct answer.
Return % Inh. measured with porcine pancreatic PLA2 (Sus scrofa, UniProt P00592) given this compound: `CCCCCCCCCCCCCCCCSCCCOP(=O)([O-])OCC[N+](C)(C)C`
STIM

Next record, please: CCCCCCCCCCCCCCCCOCC(COP(=O)([O-])OCC[N+](C)(C)C)OP(=O)(OC)OCCCCC (single isomer, unassigned)
STIM

Next record, please: CCCCCCCCCCCCCCCCOCC(COP(=O)([O-])OCC[N+](C)(C)C)OP(=O)(O)OCCCCC (single isomer, unassigned; less polar)
STIM

Next record, please: CCCCCCCCCCCCCCCCOCC(COP(=O)([O-])OCC[N+](C)(C)C)OP(=O)(O)OCCCCCCCCCCCCCCCC (centres unmarked)
STIM

Next record, please: `CCCCCCCCCCCCCCCCOC[C@@H](COP(=O)([O-])OCC[N+](C)(C)C)OP(=O)(O)OCCCCCCCCCCCCCCCC`
STIM

// next item, % Inh. requested
Return % Inh. measured with porcine pancreatic PLA2 (Sus scrofa, UniProt P00592) given this compound: CCCCCCCCCCCCCCCCOCC(COP(=O)([O-])OCC[N+](C)(C)C)COP(=O)(Oc1ccccc1)Oc1ccccc1 (centres unmarked)
33%

----------
Biological target: porcine pancreatic PLA2 (Sus scrofa, UniProt P00592)
Construct: purchased Sigma
Assay: MPLA2 assay: in vitro porcine pancreatic phospholipase A2, mixed micelle design, substrate 2 nM
Format: biochemical
Conditions: dose 20 μ/ml, subs. con. 2, read-out: % Inh.
Property Name: inhibition at 20 µg/mL (%)
Numbers only, in %.

Endpoint output: inhibition at 20 µg/mL of CCCCCCCCCCCCCCCCOCC(O)(COP(=O)([O-])OCC[N+](C)(C)C)CC(N)CC (stereo not shown) . Value?
61

Next record, please: CCCCCCCCCCCCCCCCOCC(CC=NO)COP(=O)([O-])OCC[N+](C)(C)C (stereo not shown)
57

Working through the 2 compounds below one at a time, give inhibition at 20 µg/mL for each.
1. CCCCCCCCCCCCCCCCOCC(COP(=O)([O-])OCC[N+](C)(C)C)OC(=O)C(Br)CCCCCCCCCCCCCCCC (stereo not shown)
2. CCCCCCCCCCCCCCCCSCCCOP(=O)([O-])OCC[N+](C)(C)C

1. 82
2. 83

----------
Biological target: porcine pancreatic PLA2 (Sus scrofa)
Construct: purchased Sigma
Test: MPLA2 assay: in vitro porcine pancreatic phospholipase A2, mixed micelle design, substrate 2 nM
Assay type: biochemical
Details: dose 25 μ/ml, subs. con. 2, read-out: % Inh.
Property Name: inhibition at 25 µg/mL (%)
Numbers only, in %.

These solved cases illustrate the format of a correct answer.
Endpoint output: inhibition at 25 µg/mL of CCCCCCCCCCCCCCCCOCC(COP(=O)([O-])OCC[N+](C)(C)C)CC(=O)C(F)(F)CCCCCCCCCCCCCCCC (stereo not shown) . Value?
80

Next record, please: CCCCCCCCCCCCCCCCOC[C@H](COP(=O)([O-])OCC[N+](C)(C)C)OP(=O)(OC)OCCCCCCCCCCCCCCCC (single isomer, unassigned)
93

Next record, please: C=C(CC(COCCCCCCCCCCCCCCCC)COP(=O)([O-])OCC[N+](C)(C)C)C(F)(F)CCCCCCCCCCCCCCCC (stereo not shown)
80

Next record, please: CCCCCCCCCCCCCCCCCC(=O)NCC(CO)COCCCCCCCCCCCCCCCC (stereo not shown)
93

Next record, please: CCCCCCCCCCCCCCCCOCC(COP(=O)([O-])OCC[N+](C)(C)C)CC(O)C(F)(F)CCCCCCCCCCCCCCCC (stereo not shown)
82

Next record, please: CCCCCCCCCCCCCCCCOCC(COP(=O)([O-])OCC[N+](C)(C)C)CS(=O)(=O)CCCCCCCCCCCCCCCC (stereo not shown)
80

// next item, inhibition at 25 µg/mL requested
Endpoint output: inhibition at 25 µg/mL of CCCCCCCCCCCCCCCCC#CCC(COCCCCCCCCCCCCCCCC)COP(=O)([O-])OCC[N+](C)(C)C (stereo not shown) . Value?
65
